biological target: HLA-B*44:05 (Homo sapiens, UniProt P01889, A223V/A65T/A93T/A95T/D201E/D98Y/E176V/E187L/E204Q/E69K/G107R/H137Y/K202T/L105A/L119I/N104T/N87E/Q56L/Q94N/R106L/R155S/R180D/S101N/S121R/S35A/S48T/T118I/V36M/W191S/Y91S); assay: MHC binding assay (UV-ligand exchange, β2m ELISA, peptide exchange yield); conditions: binding to HLA-B*44:05
experimental.readout: Peptide exchange (MHC class I binding score, peptide exchange yield)

Some entries whose results are on file:
{"columns": ["substance", "reported.result"],
 "data": [
  ["11 (EENIVAIGI; listed as Homo sapiens) [compound 11]", "+++ (>50 = +++)"],
  ["51 (VEMTGKHQL; listed as Homo sapiens) [compound 51]", "++ (>20% = ++)"],
  ["72 (AEVGDIIKVHF; listed as Homo sapiens) [compound 72]", "+++ (>50 = +++)"],
  ["186 (EEIFAHLGL; listed as Homo sapiens) [compound 186]", "+++ (>50 = +++)"],
  ["194 (TEGDVLNYIF; listed as Homo sapiens) [compound 194]", "+++ (>50 = +++)"]
]}

Take each entry in turn and give its Peptide exchange (MHC class I binding score, peptide exchange yield).
1. 190 (NEAGEVSKHF; listed as Homo sapiens) [compound 190]
2. 453 (SESKVFQLL; listed as Homo sapiens) [compound 453]
3. 40 (REVDPDDSYVF; listed as Homo sapiens) [compound 40]

A)
1. +++ (>50 = +++)
2. +++ (>50 = +++)
3. +++ (>50 = +++)

Take each entry in turn and give its Peptide exchange (MHC class I binding score, peptide exchange yield).
1. 297 (DEYLIPQQGFF; listed as Homo sapiens) [compound 297]
2. 200 (KELSVFKKF; listed as Homo sapiens) [compound 200]

A)
["++ (>20% = ++)", "+++ (>50 = +++)"]

* * *

Molecular target: HLA-B*44:05 (Homo sapiens, UniProt P01889, A223V/A65T/A93T/A95T/D201E/D98Y/E176V/E187L/E204Q/E69K/G107R/H137Y/K202T/L105A/L119I/N104T/N87E/Q56L/Q94N/R106L/R155S/R180D/S101N/S121R/S35A/S48T/T118I/V36M/W191S/Y91S)
Test: MHC binding assay (UV-ligand exchange, β2m ELISA, peptide exchange yield)
Conditions: binding to HLA-B*44:05
Source text: Candidate peptides for T cell-based therapies according to the present invention were further tested for their MHC binding capacity (affinity). The individual peptide-MHC complexes were produced by UV-ligand exchange, where a UV-sensitive peptide is cleaved upon UV-irradiation and exchanged with the peptide of interest as analyzed. Only peptide candidates that can effectively bind and stabilize the peptide-receptive MHC molecules prevent dissociation of the MHC complexes. […]
experimental.readout: Peptide exchange (MHC class I binding score, peptide exchange yield)

{"columns": ["substance", "reported.result"],
 "data": [
  ["50 (SEYVHSSFSGF; listed as Homo sapiens) [compound 50]", "+++ (>50 = +++)"],
  ["161 (GESSEVKAVL; listed as Homo sapiens) [compound 161]", "+++ (>50 = +++)"]
]}
